Task for the reader: assign each of the following binders its reported t½.
- subject_of_test: T1, mf TFRC ecto-mmh (REGN2054), monomeric monkey (cyno) Tfrc ectodomain with C-terminal myc-myc-hexahistidine tag (monkey (cyno), Macaca fascicularis, UniProt H9EXL1 89-760)
- T1 construct: range 89-760; also called mfTfR-mmh; mfTFR-mmh
- protocol_text: SPR (Biacore), mAb captured on anti-human Fc, 100 nM mfTfR-mmh, 25 C
Give the value in min but do not write min after it.

Find the recorded t½ belonging to 31874B (antibody, human IgG1, kappa, V domains shown, Tested as bivalent human IgG1 from CHO primary supernatant; also called H1H31874B; REGN17517) VH: EVQLVESGGGLVQPGGSLRLSCAASGFAFSSYAMTWVRQAPGKGLEWVSVISGTGGSTYYADSVKGRFTISRDNSKNTLYLQMNSLRAEDTAVYYCAKGGAARRMEYFQYWGQGTLVTVSS VL: DIQMTQSPSSLSASVGDRVTITCRASQGISNYLAWYQQKPGKVPNLLIYAASTLQSGVPSRFSGSGSGTDFTLTISSLQPEDVATYYCQKYNSAPLTFGGGTKVEIKR and report it. 1.2

Ok, now 69331 (antibody, human IgG1, kappa, V domains shown, Tested as bivalent human IgG1 from CHO primary supernatant) VH: QVQLVESGGGVVQPGRSLRLSCIASGFTFSVYGIHWVRQAPGKGLEWMAVISHDGNIKHYADSVKGRFTISRDNSKNTLYLQINSLRTEDTAVYYCAKDTWNSLDTFDIWGQGTMVTVSS VL: DIQLTQSPSSLSASVGDRVTITCWASQGISSYLAWYQQKPGKAPKLLIYAASTLQSGVPSRFSGSGSGTEFTLTISSLQPEDFATYYCQQLNSYPLTFGGGTKVEIKR 1.2

For 69340 (antibody, human IgG1, kappa, V domains shown, Tested as bivalent human IgG1 from CHO primary supernatant) VH: EVQLVESGGGLVQPGRSLRLSCAASGFTFDDKAMHWVRQVPGKGLEWISGISWNSGTIGYADSVKGRFIISRDNAKNSLYLQMNSLRAEDTALYYCAKDGDTSGWYWYGLDVWGQGTTVTVSS VL: EIVLTQSPATLSLSPGERATLSCRASQSVSSYLAWYQQKPGQAPRLLIHDVSNRATGIPARFSGSGSGTDFTLTISSLEPEDFVVYYCQQRSDWPITFGQGTRLEIKR then? 16

And 31863B (antibody, human IgG1, kappa, V domains shown, Tested as bivalent human IgG1 from CHO primary supernatant) VH: EVQLVESGGGLVQPGGSLRLSCAASGFTFNSYAMTWVRQAPGKGLEWVSFIGGSTGNTYYAGSVKGRFTISSDNSKKTLYLQMNSLRAEDTAVYYCAKGGAARRMEYFQHWGQGTLVTVSS VL: DIQMTQSPSSLSASIGDRVTITCRASQGISNYLAWYQQKPGKVPKLLIYAASTLQSGVPSRFSGSGSGTDFTLTISSLQPEDVATYYCQNHNSVPLTFGGGTKVEIKR ? 3.9

Again, but for 12808B (antibody, human IgG1, kappa, V domains shown, Tested as bivalent human IgG1 from CHO primary supernatant) VH: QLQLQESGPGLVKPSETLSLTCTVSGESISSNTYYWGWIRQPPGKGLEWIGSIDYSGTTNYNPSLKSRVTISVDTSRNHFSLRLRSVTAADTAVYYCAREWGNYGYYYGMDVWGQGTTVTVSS VL: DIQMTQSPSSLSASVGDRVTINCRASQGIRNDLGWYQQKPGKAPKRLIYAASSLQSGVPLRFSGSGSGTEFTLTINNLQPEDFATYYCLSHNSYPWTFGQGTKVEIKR 25.5
